Catalogue of Ki values
target: Delta-type opioid receptor (Homo sapiens); experiment: biochemical
Sequence (P41143 whole entry): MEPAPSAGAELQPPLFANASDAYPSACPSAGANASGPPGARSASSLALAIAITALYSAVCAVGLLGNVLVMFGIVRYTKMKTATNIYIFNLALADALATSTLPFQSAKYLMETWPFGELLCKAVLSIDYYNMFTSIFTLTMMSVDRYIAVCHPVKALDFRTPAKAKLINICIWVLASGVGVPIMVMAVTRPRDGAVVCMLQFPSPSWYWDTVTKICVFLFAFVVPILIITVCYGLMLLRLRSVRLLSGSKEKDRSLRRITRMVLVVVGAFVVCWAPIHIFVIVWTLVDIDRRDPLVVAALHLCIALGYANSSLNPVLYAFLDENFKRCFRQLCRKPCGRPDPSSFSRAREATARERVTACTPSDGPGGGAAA
Description: Displacement of [3H]diprenorphine from human cloned delta type opioid receptor expressed in CHO cell membranes by scintillation counter
RECORDED ENDPOINT: Ki

• CN(C)C(=O)C(Cc1c(F)cccc1F)CN1CCC2(CC1)OCCc1ccsc12 (racemic) = > 400 nM
• CN(C)C(=O)C(Cc1ccccc1Cl)CN1CCC2(CC1)OCCc1cc(Cl)sc12.O=C(O)C(O)C(O)C(=O)O (single isomer, unassigned; (-)) = > 400 nM
• CN(C)C(=O)C(Cc1cscn1)CN1CCC2(CC1)OCc1ccc(F)cc12 (stereo not given) = > 400 nM
• CN(C)C(=O)C(Cc1ccccc1F)CN1CCC2(CC1)OCCc1ccsc12 (racemic) = > 400 nM
• CN(C)C(=O)C(Cc1ccccc1Cl)CN1CCC2(CC1)OCCc1cc(F)sc12 (single isomer, unassigned; (+)) = > 400 nM
• CN(C)C(=O)C(CN1CCC2(CC1)OCCc1ccsc12)Cn1cccn1 (racemic) = > 400 nM
• CN(C)C(=O)[C@@H](Cc1ccccc1F)CN1CCC2(CC1)OCCc1cc(F)sc12.O=C(O)C(O)C(O)C(=O)O = > 400 nM
• CN(C)C(=O)C(Cc1ccccc1F)CN1CCC2(CC1)OCCc1cc(Cl)sc12.O=C(O)C(O)C(O)C(=O)O (single isomer, unassigned; (+)) = > 400 nM
• Cc1cccc2c1CC[C@H](CN1CCC(c3c(Cl)cccc3Cl)CC1)C[C@@H]2O = > 400 nM
• CN(C)C(=O)C(Cc1ccccc1Cl)CN1CCC2(CC1)OCCc1ccsc12 (racemic) = > 400 nM

----------
test system: Brain; assay: Drug uptake in Harlan Sprague-Dawley rat brain at 3 ug/kg, iv up to 60 mins by LC-MS/MS analysis; conditions: in vivo, 1 h
RECORDED ENDPOINT: SUV (%)

- CN(C)C(=O)C(Cc1cscn1)CN1CCC2(CC1)OCc1ccc(F)cc12 (stereo not drawn): 25
- CN(C)C(=O)C(CN1CCC2(CC1)OCCc1ccsc12)Cn1cccn1.O=C(O)C(O)C(O)C(=O)O (single isomer, unassigned; (-)): 15
- CN(C(=O)C(Cc1ccccc1F)CN1CCC2(CC1)OCCc1cc(F)sc12)C1CC1 (single isomer, unassigned; (-)): 82
- CN(C)C(=O)C(Cc1ccccc1F)CN1CCC2(CC1)OCCc1cc(Cl)sc12.O=C(O)C(O)C(O)C(=O)O (single isomer, unassigned; (+)): 88
- CNC(=O)Cn1c(=O)n(C2CCN([C@@H]3Cc4cccc5cccc3c45)CC2)c2ccccc21: 0
- CN(C)C(=O)C(CN1CCC2(CC1)OCCc1cc(F)sc12)Cn1cccn1.O=C(O)C(O)C(O)C(=O)O (single isomer, unassigned; (+)): 65
- Cc1cccc2c1CC[C@H](CN1CCC(c3c(Cl)cccc3Cl)CC1)C[C@@H]2O: 130
- CN(C(=O)C(Cc1ccccc1Cl)CN1CCC2(CC1)OCCc1cc(F)sc12)C1CC1 (single isomer, unassigned; (-)): 72
- CNC(=O)C(Cc1ccccc1F)CN1CCC2(CC1)OCCc1cc(Cl)sc12 (single isomer, unassigned; (-)): 46
- COC(=O)CN1CN(c2ccccc2)C2(CCN(Cc3cccc4ccccc34)CC2)C1=O: 6
- NC(=O)C(Cc1ccccc1Cl)CN1CCC2(CC1)OCCc1cc(Cl)sc12 (stereo not drawn): 145
- CN(C)C(=O)C(Cc1ccccc1Cl)CN1CCC2(CC1)OCCc1cc(Cl)sc12.O=C(O)C(O)C(O)C(=O)O (single isomer, unassigned; (-)): 75
- CNC(=O)C(Cc1ccccc1Cl)CN1CCC2(CC1)OCCc1cc(Cl)sc12 (stereo not drawn): 87
